Numbers sourced from paper PMC7822874.

PROTOCOL SUMMARY: in vitro
EXPERIMENTAL PARAMETERS: human, HepG2-A16-CD81EGFP cells, uninfected
MEASURED ATTRIBUTE: viability at 48 h, 3 µM

Illustrative cases are given below, each with its answer.
[[record]]
compound = "Cc1ccc(NC(=O)c2ccc(NCCCN3CCC(C)CC3)c([N+](=O)[O-])c2)cc1F"
assay_value = "104%"

[[record]]
compound = "O=C(Nc1ccc2c(N3CCOCC3)ncnc2c1)c1cccc(Br)c1"
assay_value = "39.6%"

[[record]]
compound = "CCN(CC)CCn1c(=N)n(CC(=O)c2ccc(Br)s2)c2ccccc21"
assay_value = "91%"


Now turn to the next compound.
Prompt: Find the recorded viability at 48 h, 3 µM belonging to OC(CNCCNc1ncccc1C(F)(F)F)Cn1ccc2ccccc21 (stereo not shown) and report it.
Response: 96%

---

PROTOCOL SUMMARY: in vitro
EXPERIMENTAL PARAMETERS: human, HepG2-A16-CD81EGFP cells, uninfected
MEASURED ATTRIBUTE: viability at 48 h, 1 µM (%)
The reply should be a number in %, with the unit left off.

Illustrative cases are given below, each with its answer.
[[record]]
compound = "COCCCNc1nc2cc(OC)c(OC)cc2c2nc(-c3ccccc3)nn12"
value_units = "%"
assay_value = 105

[[record]]
compound = "CCOC(=O)c1c(CN(C)C)n(-c2ccc(C)cc2)c2cc(Br)c(O)cc12"
value_units = "%"
assay_value = 101

[[record]]
compound = "COc1ccccc1CN1COc2ccc3c(oc(=O)c4ccccc43)c2C1"
value_units = "%"
assay_value = 106

[[record]]
compound = "CCOc1ccccc1CN1CCCN(Cc2ccncc2)C(c2ccccc2)CC(=O)NCC1 (centres unmarked)"
value_units = "%"
assay_value = 101

[[record]]
compound = "CCOC(=O)c1cn(CC)c2cc(N3CCSCC3)c(F)cc2c1=O"
value_units = "%"
assay_value = 89


Prompt: Find the recorded viability at 48 h, 1 µM belonging to c1ccc(Nc2nc(NCc3ccco3)c3ccccc3n2)cc1 and report it.
Response: 94

Prompt: Find the recorded viability at 48 h, 1 µM belonging to CCCc1ccc(OCc2nc(-c3ccc(NC(=O)c4cccs4)cc3)no2)cc1 and report it.
Response: 97.2

Prompt: Find the recorded viability at 48 h, 1 µM belonging to CC1(C)N=C(N)N=C(N)N1c1ccc(OCCCOc2ccccc2)c(Cl)c1 and report it.
Response: 39

---

System: HepG2
EXPERIMENTAL PARAMETERS: human, hepg2 cells, 48 h
The following molecules are shown together with reported Log AC50 (M) values.
The reply should be a number in M, with the unit left off.

[[record]]
molecule = "O=C(c1cc(NC(=O)C23CC4CC(CC(C4)C2)C3)cc(NC(=O)C23CC4CC(CC(C4)C2)C3)c1)N1CCCCC1 [MLS000549502-01]"
test_system = "HepG2"
assay_value = -4.3643

[[record]]
molecule = "Cc1nn(C)c(C)c1CCC(=O)N1CCC(Cc2noc(-c3ccc(F)cc3)n2)C1 (centres unmarked) [NCGC00443260-01]"
test_system = "HepG2"
assay_value = -4.5143

[[record]]
molecule = "COc1ccccc1Nc1cnc2ccc(-c3ccc(OC)c(OC)c3)nn12 [NCGC00412573-01]"
test_system = "HepG2"
assay_value = -4.3528

[[record]]
molecule = "CCCN1CCN(CCCNC(=O)c2ccc3c(c2)sc2nc(-c4ccc(OCC)cc4)cn23)CC1 [NCGC00113254-01]"
test_system = "HepG2"
assay_value = -4.6143

[[record]]
molecule = "Cc1ccc(-c2nn(-c3ccccc3)cc2CSC(=N)N)cc1 [MLS000572993-01]"
test_system = "HepG2"
assay_value = -4.3643

[[record]]
molecule = "COc1cc2nc(N3CCN(c4cc(C)ccc4C)CC3)nc(N)c2cc1OC.Cl [MLS001199642-01]"
test_system = "HepG2"
assay_value = -4.3643


Prompt: Find the recorded Log AC50 (M) belonging to O=C(O)c1ccccc1.OC(CNCC1CCCO1)Cn1c2ccc(Cl)cc2c2cc(Cl)ccc21 (centres unmarked) [MLS000525403-01] and report it.
Response: -4.4143

Prompt: Find the recorded Log AC50 (M) belonging to COc1ccccc1-c1ccc(CN2CCCC(c3nc4ccc(F)cc4c(=O)[nH]3)C2)cc1 (centres unmarked) [NCGC00377223-02] and report it.
Response: -4.3643

---

The following compounds are shown together with reported log10 of AC50 values.
Test system: P. falciparum Dd2 Cytb F123L
PROTOCOL SUMMARY: SYBR Green ABS proliferation assay, NCGC00473217 selected clone G08
Type: cell-based, Plasmodium falciparum
EXPERIMENTAL PARAMETERS: Plasmodium falciparum, DD2, […]; averaged from three independent replicates; top concentration 29 µM; read-out: Average AC50 (Log[M]), NCGC00473217 clone G08 (Cytb F123L) (converted)
// units: M (pre-log); metric: AC50; scale: log10

Illustrative cases are given below, each with its answer.
[[record]]
compound = "CCCN1C(CC(C)C)=N[S+](=O)([O-])c2cc(N[S+](=O)([O-])c3cccs3)ccc21"
test_system = "P. falciparum Dd2 Cytb F123L"
assay_value = -4.95

[[record]]
compound = "CC(C)CC1=N[S+](=O)([O-])c2cc(NC(=O)c3ccco3)ccc2N1C"
test_system = "P. falciparum Dd2 Cytb F123L"
assay_value = -6.10

[[record]]
compound = "CCCN1C(CC(C)C)=N[S+](=O)([O-])c2cc(NC(=O)c3sccc3F)ccc21"
test_system = "P. falciparum Dd2 Cytb F123L"
assay_value = -5.12

[[record]]
compound = "CCCN1C(CC(C)C)=N[S+](=O)([O-])c2cc(NC(=O)c3cc4ccccc4o3)ccc21"
test_system = "P. falciparum Dd2 Cytb F123L"
assay_value = -5.87


Prompt: Find the recorded log10 of AC50 belonging to CCCN1C(CC(C)C)=N[S+](=O)([O-])c2cc(NC(=O)c3ccc(-c4ccccc4)s3)ccc21 and report it.
Response: -5.65

Prompt: Find the recorded log10 of AC50 belonging to CCCN1C(CC(C)C)=N[S+](=O)([O-])c2cc(NC(=O)c3sccc3Cl)ccc21 and report it.
Response: -5.65

Prompt: Find the recorded log10 of AC50 belonging to CCCN1C(CC(C)C)=N[S+](=O)([O-])c2cc(NC(=O)c3cccc(F)c3)ccc21 and report it.
Response: -4.95

Prompt: Find the recorded log10 of AC50 belonging to CCCN1C(CC(C)C)=N[S+](=O)([O-])c2cc(NC(=O)c3ccccc3F)ccc21 and report it.
Response: -5.57

Prompt: Find the recorded log10 of AC50 belonging to CCCN1C(CC(C)C)=N[S+](=O)([O-])c2cc(NC(=O)c3coc4ccccc34)ccc21 and report it.
Response: -5.05

Prompt: Find the recorded log10 of AC50 belonging to CCCN1C(CC(C)C)=N[S+](=O)([O-])c2cc(N)ccc21 and report it.
Response: -5.40

Prompt: Find the recorded log10 of AC50 belonging to CCCN1C(CC(C)C)=N[S+](=O)([O-])c2cc(N[S+](=O)([O-])c3ccc4ccccc4c3)ccc21 and report it.
Response: -6.15

Prompt: Find the recorded log10 of AC50 belonging to CCCN1C(CC(C)C)=N[S+](=O)([O-])c2cc(NC(=O)c3cc4c(s3)CCC4)ccc21 and report it.
Response: -4.95

---

Test system: P. falciparum Dd2 Cytb V259L
PROTOCOL SUMMARY: SYBR Green ABS proliferation assay, NCGC00473217 selected clone F06
Format: cell-based, Plasmodium falciparum
EXPERIMENTAL PARAMETERS: Plasmodium falciparum, DD2, cytochrome b mutant line, third value triple, c9; […]; read-out: log AC50, mean (converted)
Under this convention, y denotes AC50 strictly below 9 µM and n denotes AC50 at or above 9 µM.

See these solved cases before continuing.
[[record]]
compound = "CCCN1C(CC(C)C)=N[S+](=O)([O-])c2cc(NCc3cccs3)ccc21 [NCGC00531814-01]"
assigned_label = "n"

[[record]]
compound = "Cc1ccccc1C(=O)N1CCc2nc(C3CC3)nc(-c3ccc(O)cc3)c2CC1 [NCGC00480365-01]"
assigned_label = "n"

[[record]]
compound = "CCc1nc2c(c(-c3ccc(O)cc3)n1)CCN(Cc1ccccc1C(F)(F)F)CC2 [NCGC00480300-01]"
assigned_label = "y"

[[record]]
compound = "CN(C)c1nc2c(c(=O)[nH]1)CCN(Cc1ccc(Br)cc1)CC2 [NCGC00440593-01]"
assigned_label = "n"

[[record]]
compound = "CCCN1C(CC(C)C)=N[S+](=O)([O-])c2cc(N(Cc3cccs3)Cc3cccs3)ccc21 [NCGC00531812-01]"
assigned_label = "y"

[[record]]
compound = "CCCN1C(CC(C)C)=N[S+](=O)([O-])c2cc(NC(=O)c3ccc(F)c(Br)c3)ccc21 [NCGC00531767-01]"
assigned_label = "y"


Prompt: AC50 strictly < 9 µM for this compound? CC(C)c1nc2c(c(-c3ccc(O)cc3)n1)CCN(Cc1ccc(C(F)(F)F)cc1)CC2 [NCGC00480320-01]
Response: y

Prompt: AC50 strictly < 9 µM for this compound? CCCN1C(CC(C)C)=N[S+](=O)([O-])c2cc(NC(=O)c3ccc(Cl)cc3)ccc21 [NCGC00531775-01]
Response: y
